B1: TPR t1 (parent)
chain: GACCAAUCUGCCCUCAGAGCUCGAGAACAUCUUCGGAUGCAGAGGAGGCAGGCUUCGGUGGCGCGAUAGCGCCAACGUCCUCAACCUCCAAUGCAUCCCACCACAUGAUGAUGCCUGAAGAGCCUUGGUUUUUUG

Variants of: B1
Assay: polymerase ribozyme fitness, log enrichment relative to wild type (log ratio); higher = more active; in vitro selection for triplet polymerase activity
PROPERTY LABEL: polymerase ribozyme fitness (log ratio)

| ALTERATION | MEASURED |
| --- | --- |
| C12A U33G G48A A119G | -5.25 |
| U7A G57U | -0.259 |
| C11A G69U C79U C102U | -1.74 |
| A66U | -0.954 |
| G51A C86U | -3.18 |
| C12G C82U C97A | -3.58 |
| U14C G44U | -3.05 |
| C62U C114G | -3.11 |
| G36U G117U | -3.26 |
| A29U C70G | -3.31 |
| C28U C31A C85G A119G G120A | -7.42 |
